test system: Vaccinia NYCBOH strain; type: cell-based; settings: read-out: IC50, inhibition of infectivity of Vaccinia virus
reportedProperty: pIC50
As a rule, pIC50 stands for the negative log10 of the concentration, concentration in M.

Reference set, count: 4
> print(dat)
                                 smilescode  reportedproperty  observedvalue
1  [N-]=[N+]=Nc1ccc(NCCCCCCN2C[C@H](O)[C@@H](O)[C@H](O)[C@H]2CO)c([N+](=O)[O-])c1             pIC50           5.52
2  CCCCCCCCCN1C[C@H](O)[C@@H](O)[C@H](O)[C@H]1CO             pIC50           4.68
3  COCCCCCCCCCN1C[C@H](O)[C@@H](O)[C@H](O)[C@H]1CO             pIC50           4.23
4  CCCCN1C[C@H](O)[C@@H](O)[C@H](O)[C@H]1CO             pIC50           4.05

Pending compound:
## Task Form: Entry = CCCOCCCCCCN1C[C@H](O)[C@@H](O)[C@H](O)[C@H]1CO | System = Vaccinia NYCBOH strain | pIC50 = ____
## Result 5.15
